Data provenance: ChEMBL document CHEMBL1255543

# Test system: Pseudomonas aeruginosa
# protocol: Antimicrobial activity against Pseudomonas aeruginosa ATCC 27853 by broth microdilution assay
# Format: functional

compound_structure	MIC
CC(C)C[C@@H]1NC(=O)[C@H](CCC(N)=O)NC(=O)[C@H](C(C)C)NC(=O)[C@@H]2CCCN2C(=O)[C@@H](Cc2ccc(F)cc2)NC(=O)[C@H](CC(C)C)NC(=O)[C@H](CCC(N)=O)NC(=O)[C@H](C(C)C)NC(=O)[C@@H]2CCCN2C(=O)[C@@H](Cc2ccc(F)cc2)NC1=O	> 100 µg/mL
CC(C)C[C@@H]1NC(=O)[C@H](CCC(N)=O)NC(=O)[C@H](C(C)C)NC(=O)[C@@H]2CCCN2C(=O)[C@@H](Cc2ccc(O)cc2)NC(=O)[C@H](CC(C)C)NC(=O)[C@H](CCC(N)=O)NC(=O)[C@H](C(C)C)NC(=O)[C@@H]2CCCN2C(=O)[C@@H](Cc2ccc(O)cc2)NC1=O	> 100 µg/mL
